Reference source for all entries: patent US20190016825A1

- SYSTEM: T1, PCSK9-BP15-His6 (human, UniProt Q8NBP7 31-692, biotin on the BP15 biotin receiving peptide)
- T1 construct: It holds a signal peptide (underlined in print); also called WT PCSK9; bio-WT-PCSK9
- METHOD_SUMMARY: ELISA, bio-WT-PCSK9 captured on streptavidin plate
# EC50 listing for each entry below

Some solved cases for reference:
BINDER	REPORTED_METRIC	ASSAY_RESULT
h001-7 (antibody, human IgG1, V domains shown, Variable regions only; also called h001_VH.1A + h001_VL.1B) VH: QVQLVQSGAEVKKPGASVKVSCKASGYTFNDYWMHWVRQAPGQGLEWMGYINPSSGFTKYHQNFKDRVTMTRDTSISTAYMELSRLRSDDTAVYYCARQYDYDEDWYFDVWGQGTTVTVSS VL: DIQMSQSPSSLSASVGDRVTITCKSSQSLLNSRTRKNFLAWYQQKPGKAPKLLIYWASTRESGVPDRFSGSGSGTDFTLTISSLQPEDFATYYCKQSFNLFTFGQGTKLEIK	EC50	0.012 µg/mL
h001-22 (antibody, human IgG1, V domains shown, Variable regions only; also called h001_VH.1E + h001_VL.1A) VH: QVQLVQSGAEVKKPGASVKVSCKASGYTFNDYWMHWVKQAPGQGLEWIGYINPSSGFTKYHQNFKDKATLTADKSISTAYMELSRLTSDDTAVYYCARQYDYDEDWYFDVWGQGTTVTVSS VL: DIQMTQSPSSLSASVGDRVTITCKSSQSLLNSRTRKNFLAWYQQKPGKAPKLLIYWASTRESGVPDRFSGSGSGTDFTLTISSLQPEDFATYYCKQSFNLFTFGQGTKLEIK	EC50	0.0123 µg/mL
h001-2 (antibody, human IgG1, V domains shown, Variable regions only; also called h001_VH.1 + h001_VL.1A) VH: QVQLVQSGAEVKKPGASVKVSCKASGYTFTDYWMHWVRQAPGQGLEWMGYINPSSGFTKYHQNFKDRVTMTRDTSISTAYMELSRLRSDDTAVYYCARQYDYDEDWYFDVWGQGTTVTVSS VL: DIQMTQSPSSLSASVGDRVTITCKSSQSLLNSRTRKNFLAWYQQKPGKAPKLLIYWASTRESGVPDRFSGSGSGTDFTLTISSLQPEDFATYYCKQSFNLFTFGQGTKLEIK	EC50	0.0123 µg/mL
h001-13 (antibody, human IgG1, V domains shown, Variable regions only; also called h001_VH.1C + h001_VL.1) VH: QVQLVQSGAEVKKPGASVKVSCKASGYTFNDYWMHWVRQAPGQGLEWMGYINPSSGFTKYHQNFKDRVTMTRDTSISTAYMELSRLTSDDTAVYYCARQYDYDEDWYFDVWGQGTTVTVSS VL: DIQMTQSPSSLSASVGDRVTITCKSSQSLLNSRTRKNFLAWYQQKPGKAPKLLIYWASTRESGVPSRFSGSGSGTDFTLTISSLQPEDFATYYCKQSFNLFTFGQGTKLEIK	EC50	0.0071 µg/mL

Turning now to a further binder:
In: Fill in the blank: the reported EC50 of h001-8 (antibody, human IgG1, V domains shown, Variable regions only; also called h001_VH.1A + h001_VL.1C) VH: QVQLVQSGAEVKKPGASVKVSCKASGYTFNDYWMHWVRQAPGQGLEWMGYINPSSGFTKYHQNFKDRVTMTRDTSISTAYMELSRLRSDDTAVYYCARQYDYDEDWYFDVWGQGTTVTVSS VL: DIVMSQSPSSLSASVGDRVTITCKSSQSLLNSRTRKNFLAWYQQKPGKSPKLLIYWASTRESGVPDRFSGSGSGTDFTLTISSLQPEDFATYYCKQSFNLFTFGQGTKLEIK is ____.
Out: 0.009 µg/mL
